Target: T1, biotin-labeled human CD137 fused to human IgG1 Fc fragment (human, biotin-labeled);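 note: bead ELISA on streptavidin-coated magnetic beads, with the signal read as well fluorescence 2 min after APS-5 addition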
T1 construct: Immobilised on streptavidin beads through biotin; also called human CD137-Fc; biotin-human CD137-Fc
Test: competitive bead ELISA, IgG on biotin-human CD137-Fc, competitor free CD3 epsilon peptide 125 pmol/well
Measured attribute: ELISA signal, free CD3e 125 pmol/well

Can you share its ELISA signal, free CD3e 125 pmol/well? I mean this binder: dBBDu204 (antibody, human IgG1, V domains shown, IgG: VH joined to human IgG1 CH1-Fc, GLS3000 as light chain) VH: QVQLVESGGGLVQPGRSLRLSCAASGFTFSNAWMHWVRQAPGKGLEWVAQIKDRSNNYATYYAESVKGRFTISRDDSKNSIYLQMNSLKTEDTAVYYCHYVHYASASTVLPAFGVDAWGQGTTVTVSS VL: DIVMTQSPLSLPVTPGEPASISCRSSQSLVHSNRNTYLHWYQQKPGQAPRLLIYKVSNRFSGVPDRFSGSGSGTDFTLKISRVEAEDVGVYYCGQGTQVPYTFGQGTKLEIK
1880

Try this binder too: dBBDu193 (antibody, human IgG1, V domains shown, IgG: VH joined to human IgG1 CH1-Fc, GLS3000 as light chain) VH: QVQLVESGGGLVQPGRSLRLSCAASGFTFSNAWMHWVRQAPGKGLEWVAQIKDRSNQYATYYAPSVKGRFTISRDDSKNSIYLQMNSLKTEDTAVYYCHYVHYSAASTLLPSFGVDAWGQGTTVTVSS VL: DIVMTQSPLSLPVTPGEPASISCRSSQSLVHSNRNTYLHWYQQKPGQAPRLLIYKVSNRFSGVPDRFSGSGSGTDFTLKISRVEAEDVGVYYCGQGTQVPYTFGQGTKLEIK
2280
